Hey, just so you know, these numbers are from ChEMBL document CHEMBL4425085.

Molecular target: Epidermal growth factor receptor (Homo sapiens, UniProt P00533, L858R/T790M)
Sequence (P00533 25-1210 T790M/L858R limits assumed): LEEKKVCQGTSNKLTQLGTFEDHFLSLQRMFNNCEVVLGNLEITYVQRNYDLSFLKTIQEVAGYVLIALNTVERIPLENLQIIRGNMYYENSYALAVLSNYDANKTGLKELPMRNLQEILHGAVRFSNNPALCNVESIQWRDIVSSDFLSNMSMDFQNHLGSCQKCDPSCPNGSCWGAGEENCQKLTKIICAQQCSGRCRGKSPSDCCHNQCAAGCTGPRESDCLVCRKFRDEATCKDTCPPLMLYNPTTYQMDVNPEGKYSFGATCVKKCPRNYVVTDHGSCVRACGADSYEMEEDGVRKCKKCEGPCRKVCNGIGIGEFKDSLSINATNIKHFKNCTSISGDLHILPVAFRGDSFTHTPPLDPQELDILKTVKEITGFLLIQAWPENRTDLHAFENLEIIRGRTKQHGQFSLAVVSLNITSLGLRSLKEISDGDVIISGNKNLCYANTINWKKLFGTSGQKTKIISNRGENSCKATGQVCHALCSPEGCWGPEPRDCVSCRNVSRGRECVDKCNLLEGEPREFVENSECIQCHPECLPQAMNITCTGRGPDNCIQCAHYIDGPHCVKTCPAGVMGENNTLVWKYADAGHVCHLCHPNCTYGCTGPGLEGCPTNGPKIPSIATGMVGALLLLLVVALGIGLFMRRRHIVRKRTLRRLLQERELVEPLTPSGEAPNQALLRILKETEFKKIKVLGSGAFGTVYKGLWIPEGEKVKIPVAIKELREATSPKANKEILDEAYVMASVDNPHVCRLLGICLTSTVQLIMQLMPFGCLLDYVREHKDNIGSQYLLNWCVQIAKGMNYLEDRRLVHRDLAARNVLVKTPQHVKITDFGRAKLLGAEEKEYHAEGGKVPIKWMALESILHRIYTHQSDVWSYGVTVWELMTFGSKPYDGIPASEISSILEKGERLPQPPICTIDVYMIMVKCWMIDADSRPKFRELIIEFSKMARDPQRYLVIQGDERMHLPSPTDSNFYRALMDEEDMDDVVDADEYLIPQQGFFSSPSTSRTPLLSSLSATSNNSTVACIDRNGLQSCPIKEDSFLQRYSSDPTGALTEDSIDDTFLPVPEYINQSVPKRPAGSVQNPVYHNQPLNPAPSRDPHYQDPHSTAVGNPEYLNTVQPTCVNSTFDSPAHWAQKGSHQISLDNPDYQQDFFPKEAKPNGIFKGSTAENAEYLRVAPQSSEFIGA
Assay: Binding affinity to partial length human EGFR L858R/T790M double mutant expressed in mammalian system by KINOMEscan assay
The threshold is 3 nM. Values of Kd beneath it are tagged y; values meeting or exceeding it are tagged n.

# MOLECULE SMILES, LABEL CLASS
data = [
    ("C=CC(=O)Nc1cccc(-n2c3nc(Nc4ccc(N5CCN(C)CC5)cc4OC)ncc3c(=O)n3c4ccccc4nc23)c1", "y"),
]

Inquiry: For this molecule, is Kd lower than 3 nM? C=CC(=O)Nc1cccc(-n2c3nc(Nc4ccc(N5CCN(NC)CC5)cc4OC)ncc3c(=O)n3ccnc23)c1
Reply text: y

Inquiry: For this molecule, is Kd lower than 3 nM? C=CC(=O)Nc1cccc(N2C3=NCCCCN3C(=O)c3cnc(Nc4ccc(N5CCN(C)CC5)cc4OC)nc32)c1
Reply text: y

Inquiry: For this molecule, is Kd lower than 3 nM? C=CC(=O)Nc1cccc(-n2c3nc(Nc4ccc(N5CCOCC5)cc4OC)ncc3c(=O)n3ccnc23)c1
Reply text: n

Inquiry: For this molecule, is Kd lower than 3 nM? C=CC(=O)Nc1cccc(-n2c3nc(Nc4ccc(N5CCN(C)CC5)cc4OCC)ncc3c(=O)n3ccnc23)c1
Reply text: n

Inquiry: For this molecule, is Kd lower than 3 nM? C=CC(=O)Nc1cccc(-n2c3nc(Nc4ccc(N5CCN(C)CC5)cc4OC)ncc3c(=O)n3ccnc23)c1
Reply text: y
